Target: T1, CTLA4-his (UniProt P16410 36-161, limits assumed)
T1 construct: construct not described; also called Ag CTLA4-his; Antigen CTLA4-his; not shown: his tag
T1 sequence (looked up): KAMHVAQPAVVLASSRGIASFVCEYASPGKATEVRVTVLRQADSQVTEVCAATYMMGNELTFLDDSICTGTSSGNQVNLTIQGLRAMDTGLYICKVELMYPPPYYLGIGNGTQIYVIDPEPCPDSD
Test: SPR Biacore T200, antibody from supernatant captured by anti-human Fc, CTLA4-his injected
# key: entry, value: Kd
Readout Label: Kd (nM)

{"Binder": "Humanized Ab 13 (VH5 + VL3) (antibody, human IgG1, kappa, V domains shown, Humanized IgG1 derived from MAb A4, full length, HEK293) VH: QVQLVQSGAEVVKPGASVKISCKASGYKFTDHFINWVKQNPGQGLEWIGDINPNNGGTNSNQKFEGRATLTVDTSISTAYMELSRLRSDDTAVYYCARLRREYFYAMDYWGQGTLVTVSS VL: DIVMTQSPLSLPVTPGEPASISCRSSKSLLHSNGITYLYWYLQKPGQSPQLLIYQMSNLASGVPDRFSSSGSGTDFTLKISRVEAEDVGVYYCAQNLELPLTFGGGTKLEIKR", "Reading": 0.542}
{"Binder": "Humanized Ab 7 (VH3 + VL1) (antibody, human IgG1, kappa, V domains shown, Humanized IgG1 derived from MAb A4, full length, HEK293) VH: QVQLVQSGAEVKKPGASVKVSCKASGYKFTDHFINWVKQAPGQGLEWIGDINPNNGGTNSNQKFEGRVTLTVDTSISTAYMELSRLRSDDTAVYYCARLRREYFYAMDYWGQGTLVTVSS VL: DIVMTQSPLSLPVTPGEPASISCRSSKSLLHSNGITYLYWYLQKPGQSPQLLIYQMSNLASGVPDRFSGSGSGTDFTLKISRVEAEDVGVYYCAQNLELPLTFGGGTKVEIKR", "Reading": 0.956}
